Sourced from PubChem BioAssay

# PROCEDURE_SUMMARY: small-molecule microarray binders of probe aDKK1, primary screen, biochemical, biotinylated probe, 635/667 nm fluorescence (AID 1099);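 also: score merges 667nm spot fluorescence with signal to noise across triplicate slides; reference of the scale not given here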
# CONDITION_SET: higher = more signal
Class field: derived from composite z-score; ranges bin 1 = under 0.1, bin 2 = from 0.1 up to 0.7, bin 3 = 0.7 and over

COMPOUND: CC(=O)Nc1cc(Br)ccc1C(=O)O
CLASS_NAME: bin 3
//
COMPOUND: COCCOC(=O)N1C(=O)[C@@]2(c3cc(C#CCNC(N)=O)ccc31)[C@H](c1ccccc1OCCO)N1[C@H](c3ccccc3)[C@H](c3ccccc3)OC(=O)[C@H]1[C@@H]2C(N)=O
CLASS_NAME: bin 2

Into which category would you place "Cc1ccc(S[C@]2(C(=O)NC3CC3)CC(=O)N(Cc3ccccc3)[C@@H]2c2ccc(CO)cc2)cc1" ?
bin 2

Into which category would you place "[N-]=[N+]=NCc1ccccc1C[C@@]1(C(=O)N2CCOCC2)N=C(c2ccc(OCCCO)cc2)O[C@@H]1c1ccccc1CN=[N+]=[N-]" ?
bin 3

Into which category would you place CCCCC(CC)C(O)C1C=CC2C(=O)N(c3ccccc3)C(=O)C2N1Nc1ccccc1 (configuration not stated) ?
bin 2

Into which category would you place O=C1C2C=CC(C(O)c3ccc(-c4ccccc4)s3)N(n3cnnc3)C2C(=O)N1Cc1ccccc1 (configuration not stated) ?
bin 1

---

# PROCEDURE_SUMMARY: inhibitors of hydroxyurea-induced Chk1 phosphorylation, primary screen, imaging, HeLa, phospho-Chk1 nuclear intensity (AID 1187); also: test concentration not given here
# CONDITION_SET: hydroxyurea-induced phospho-Chk1 immunofluorescence imaging, higher = more signal
Active and inactive are the calls of the source. No rule for the calls is given here.
Entries annotated with measured z-score

In the examples that follow, each entry is paired with its recorded z-score.
COMPOUND: COC(=O)[C@@]1(Cc2ccccc2)N=C(c2ccc(OCCCO)cc2)O[C@H]1c1ccccc1N=[N+]=[N-]
z-score: -0.775 (inactive)
//
COMPOUND: CC(=O)NCCCC[C@@H]1NC(=O)[C@@H]2C[C@H](C(=O)NCCCCCCNC(=O)CS)[C@H](c3ccc(O)cc3)N2C1=O
z-score: 0.0918 (inactive)
//
COMPOUND: CC(C)C(=C=CC[C@@H](O)c1ccccc1OCCO)C[C@@H](O)c1ccccn1
z-score: 0.215 (inactive)

// CCCCCN1CC=CC23O[C@@H]4/C=C\CCC(C)OC(=O)C4[C@H]2C(=O)N(CCCCCO)[C@@H]3C1=O (some centres undefined) : z-score value = 0.131 (inactive)

---

# Tested on: Sonic hedgehog protein (Shh)
# PROCEDURE_SUMMARY: small-molecule binders of Shh protein, primary screen, biochemical, small-molecule microarray, 635/667 nm fluorescence (AID 1151);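 also: Shh protein binding to compounds spotted on small-molecule microarray slides; score combines spot fluorescence intensity with signal-to-noise across triplicate slides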
# CONDITION_SET: small-molecule microarray binding, 635 nm fluorescence; higher = more signal
ENDPOINT: composite z-score
# respond with the number and nothing more

In the examples that follow, each entry is paired with its recorded composite z-score.
MOLECULE: COCCOC(=O)N1C(=O)[C@@]2(c3cc(C#CCNC(N)=O)ccc31)[C@H](c1ccccc1OCCO)N1[C@H](c3ccccc3)[C@H](c3ccccc3)OC(=O)[C@H]1[C@@H]2C(N)=O
composite z-score: 1.8

MOLECULE: O=C1OCCC=C[C@H]2OC34C=CCN(Cc5ccccc5)C(=O)[C@H]3N(CCCCCCO)C(=O)[C@@H]4C12 (some centres undefined)
composite z-score: 0.628

// "CCOC(=O)C[C@H]1[C@H](OC(=O)c2ccc(-c3ccccc3)cc2)[C@@H](NC(=O)c2ccc(-c3ccccc3)cc2)c2cc(OCCCO)ccc2N1C(=O)Cc1ccc(OC)cc1" : composite z-score value = -0.195

// "O=C(CCN1CCOCC1)c1cccc(O)c1" : composite z-score value = 1.82

// "COC(=O)[C@@]1(Cc2ccc(OC)cc2)[C@H]2c3cc(C(=O)N4CCCC4)n(Cc4ccccn4)c3C[C@H]2CN1C(=O)c1ccccc1" : composite z-score value = -0.622

// N#Cc1ccc(NN2C(C(O)c3cccs3)C=CC3C(=O)N(c4ccccc4)C(=O)C32)cc1 (centres undefined) : composite z-score value = -0.318

// "O=C1N(CCS(=O)(=O)c2ccccc2)c2ccccc2C[C@@]12COC(c1ccc(OCCCO)cc1)=N2" : composite z-score value = 0.534
